Test system: HBV viral production from HepAD38 cells
PROTOCOL SUMMARY: Activity of test compounds on viral production from HepAD38 cells (viral load by qPCR of HBV core sequence in supernatant)
Assay type: cell-based
TEST SETTINGS: Hepatitis B virus, 120 h, 5 days incubation, HBV DNA in supernatant by qPCR, top concentration 10 μM, read-out: Viral Load EC50 Activity range
MEASUREMENT NAME: EC50

In the examples that follow, each entry is paired with its recorded EC50.
                                   compound                           assayed_target  recorded_value
0  Cc1cc(C2CC(C(=O)Nc3ccc(F)c(Cl)c3)N(C)S(=O)(=O)N2)sc1-c1cnn(C)c1 (racemic)  HBV viral production from HepAD38 cells          < 1 µM
1  CN1[C@@H](C(=O)Nc2ccc(F)c(Cl)c2)C[C@@H](c2ccc(F)c(F)c2)NS1(=O)=O  HBV viral production from HepAD38 cells          > 5 µM

Now let's try a different one.
Hey, HBV viral production from HepAD38 cells data for CN1[C@@H](C(=O)Nc2ccc(F)c(Cl)c2)C[C@@H](c2ccc3c(c2)ncn3C)NS1(=O)=O (relative stereo) : EC50 came out at < 1 µM

====

Tested on: HBV viral production from HepAD38 cells
PROTOCOL SUMMARY: Activity of test compounds on viral production from HepAD38 cells (viral load by qPCR of HBV core sequence in supernatant)
Assay type: cell-based
TEST SETTINGS: Hepatitis B virus, 120 h, 5 days incubation, HBV DNA in supernatant by qPCR, top concentration 10 μM, read-out: Viral Load EC50 Activity range
Would you kindly list EC50 for each of these molecules?

In the examples that follow, each entry is paired with its recorded EC50.
>>> df
                                   molecule  recorded_value
0  CN1[C@H](C(=O)Nc2ccc(F)c(Cl)c2)C[C@H](c2cc(-c3ccn(C)n3)cs2)NS1(=O)=O          < 1 µM
1  [2H]C([2H])([2H])N1[C@@H](C(=O)Nc2ccc(F)c(Cl)c2)C[C@@H](c2ncc(-c3cn(C)cn3)s2)NS1(=O)=O (relative stereo)       1 to 5 µM
2  CN1[C@H](C(=O)Nc2ccc(F)c(Cl)c2)C[C@H](c2ccc(-c3ccc(F)cn3)s2)NS1(=O)=O          < 1 µM
3  CN1[C@@H](C(=O)Nc2ccc(F)c(Cl)c2)C[C@@H](c2cccc(Cl)c2)NS1(=O)=O          > 5 µM
4  CN1[C@H](C(=O)Nc2ccc(F)c(Cl)c2)C[C@H](c2cc(-c3nncn3C)cs2)NS1(=O)=O          < 1 µM
5  CN1[C@@H](C(=O)Nc2ccc(F)c(Cl)c2)C[C@H](c2ccc(Br)s2)NS1(=O)=O [HBV-CSU-114-Trans-ISO-I]       1 to 5 µM

Documented EC50 of CN1[C@H](C(=O)Nc2cccc(C#N)c2)C[C@H](c2cccs2)NS1(=O)=O : < 1 µM

====

Test system: HBV viral production from HepAD38 cells
PROTOCOL SUMMARY: Activity of test compounds on viral production from HepAD38 cells (viral load by qPCR of HBV core sequence in supernatant)
Assay type: cell-based
TEST SETTINGS: Hepatitis B virus, 120 h, 5 days incubation, HBV DNA in supernatant by qPCR, top concentration 10 μM, read-out: Viral Load EC50 Activity range
MEASUREMENT NAME: EC50

In the examples that follow, each entry is paired with its recorded EC50.
>>> print(df.to_string())
                                   compound   recorded_value
0  CN1C(C(=O)Nc2ccc(F)c(Cl)c2)CC(c2cc(-c3ccc(Br)c(F)c3)cs2)NS1(=O)=O (racemic) [HBV-CSU-165]  1000 to 5000 nM
1  CN1[C@H](C(=O)Nc2ccc(F)c(Cl)c2)C[C@H](c2cc(-c3cncs3)cs2)NS1(=O)=O [HBV-CSU-286-ISO-I]        < 1000 nM
2  CN1[C@H](C(=O)Nc2ccc(F)c(Cl)c2)C[C@H](c2ncc(-c3cn(C)cn3)s2)NS1(=O)=O [HBV-CSU-276-ISO-I]        < 1000 nM
3  CC(C)n1cc(-c2csc([C@H]3C[C@@H](C(=O)Nc4ccc(F)c(Cl)c4)N(C)S(=O)(=O)N3)c2)cn1 [HBV-CSU-295-ISO-I]        < 1000 nM

Batch lookup, EC50 per entry.
1. COc1ccc(-c2ccc([C@H]3C[C@@H](C(=O)Nc4ccc(F)c(Cl)c4)N(C)S(=O)(=O)N3)s2)cc1 [HBV-CSU-240-ISO-I]
2. COc1ccccc1C1CC(C(=O)Nc2ccc(F)c(Cl)c2)N(C)S(=O)(=O)N1 (stereo not shown) [HBV-CSU-215]
3. CN1[C@@H](C(=O)Nc2ccc(F)c(Cl)c2)C[C@@H](C2CCCC2)NS1(=O)=O [HBV-CSU-222-ISO-II]
4. CN1C(C(=O)Nc2ccc(F)c(Cl)c2)CC(c2cc(-c3ccc(F)cn3)cs2)NS1(=O)=O (racemic) [HBV-CSU-243]
5. CN1C(C(=O)Nc2ccc(F)c(Cl)c2)CC(c2cc(-c3cn[nH]c3)cs2)NS1(=O)=O (stereo not shown) [HBV-CSU-245]
6. CN1[C@H](C(=O)Nc2ccc(F)c(Cl)c2)C[C@H](c2cc(Cl)c(-c3cnn(C)c3)s2)NS1(=O)=O [HBV-CSU-302-ISO-I]

// result
["< 1000 nM", "1000 to 5000 nM", "1000 to 5000 nM", "< 1000 nM", "< 1000 nM", "< 1000 nM"]

====

Would you kindly list EC50 for each of these molecules?
Tested on: HBV viral production from HepAD38 cells
PROTOCOL SUMMARY: Activity of test compounds on viral production from HepAD38 cells (viral load by qPCR of HBV core sequence in supernatant)
Type: cell-based
TEST SETTINGS: Hepatitis B virus, 120 h, 5 days incubation, HBV DNA in supernatant by qPCR, top concentration 10 μM, read-out: Viral Load EC50 Activity range

In the examples that follow, each entry is paired with its recorded EC50.
In [3]: df
Out[3]:
                                   molecule  measurement_name   recorded_value
0  CN1[C@H](C(=O)Nc2ccc(F)c(Cl)c2)C[C@@H](c2ccc(Br)s2)NS1(=O)=O (racemic) [HBV-CSU-114-Trans (Rac)]              EC50        > 5000 nM
1  CN1[C@H](C(=O)Nc2ccc(F)c(Cl)c2)C[C@H](c2ccc(-c3ncn(C)n3)s2)NS1(=O)=O [HBV-CSU-322-ISO-I]              EC50        < 1000 nM
2  CN1[C@@H](C(=O)Nc2ccc(F)c(Cl)c2)C[C@@H](c2cc(-c3cnn(CCO)c3)cs2)NS1(=O)=O [HBV-CSU-296-ISO-II]              EC50  1000 to 5000 nM

Batch lookup, EC50 per entry.
1. [2H]C([2H])([2H])N1[C@@H](C(=O)Nc2ccc(F)c(Cl)c2)C[C@@H](c2ccc(Br)s2)NS1(=O)=O (relative stereo) [HBV-CSU-370-ISO-II]
2. CN1C(C(=O)Nc2ccc(F)c(Cl)c2)CC(c2ccc(-c3cnn(C)c3)s2)NS1(=O)=O (racemic) [HBV-CSU-161]
3. CN1[C@@H](C(=O)Nc2ccc(F)c(Cl)c2)C[C@@H](c2ccc(-c3nncn3C)s2)NS1(=O)=O [HBV-CSU-324-ISO-II]
4. COCCN1C(C(=O)Nc2ccc(F)c(Cl)c2)CC(c2cccs2)NS1(=O)=O (racemic) [HBV-CSU-025]
5. CN1C(C(=O)Nc2ccc(F)c(Cl)c2)CC(c2ncc(-c3cccs3)s2)NS1(=O)=O (racemic) [HBV-CSU-178]
6. O=C(Nc1ccc(F)c(Cl)c1)C1CC(c2nccs2)NS(=O)(=O)N1CC1CCCO1 (racemic) [HBV-CSU-079-Rac-A]
7. CC(C)n1cc(-c2ccc([C@@H]3C[C@H](C(=O)Nc4ccc(F)c(Cl)c4)N(C)S(=O)(=O)N3)s2)cn1 [HBV-CSU-292-ISO-II]

// result
1. 1000 to 5000 nM
2. < 1000 nM
3. 1000 to 5000 nM
4. < 1000 nM
5. < 1000 nM
6. < 1000 nM
7. 1000 to 5000 nM

====

Would you kindly list EC50 for each of these compounds?
System: HBV viral production from HepAD38 cells
PROTOCOL SUMMARY: Activity of test compounds on viral production from HepAD38 cells (viral load by qPCR of HBV core sequence in supernatant)
Assay type: cell-based
TEST SETTINGS: Hepatitis B virus, 120 h, 5 days incubation, HBV DNA in supernatant by qPCR, top concentration 10 μM, read-out: Viral Load EC50 Activity range

COMPOUND	ASSAYED TARGET	RECORDED VALUE
N#CCN1C(C(=O)Nc2ccc(F)c(Cl)c2)CC(c2nccs2)NS1(=O)=O (racemic)	HBV viral production from HepAD38 cells	> 5 µM
Cc1sc([C@@H]2C[C@H](C(=O)Nc3ccc(F)c(Cl)c3)N(C)S(=O)(=O)N2)cc1-c1cnn(C)c1	HBV viral production from HepAD38 cells	> 5 µM
CCn1cc(-c2ccc([C@@H]3C[C@H](C(=O)Nc4ccc(F)c(Cl)c4)N(C)S(=O)(=O)N3)s2)cn1	HBV viral production from HepAD38 cells	> 5 µM

Batch lookup, EC50 per entry.
1. CN1[C@H](C(=O)Nc2ccc(F)c(Cl)c2)C[C@H](c2ccc(-c3cnn(CCO)c3)s2)NS1(=O)=O
2. [2H]C1C([2H])(c2ccc(Br)s2)NS(=O)(=O)N(C([2H])([2H])[2H])C1([2H])C(=O)Nc1ccc(F)c(Cl)c1 (stereo not drawn)
3. [2H]C1[C@]([2H])(c2ccc(-c3cnn(C([2H])([2H])[2H])c3)s2)NS(=O)(=O)N(C([2H])([2H])[2H])[C@]1([2H])C(=O)Nc1ccc(F)c(Cl)c1 (stereo in doubt)
4. [2H]C1[C@]([2H])(C(=O)Nc2ccc(F)c(Cl)c2)N(C([2H])([2H])[2H])S(=O)(=O)N[C@]1([2H])c1ccc(Br)s1 (stereo in doubt)
5. CN1C(C(=O)Nc2ccc(F)c(Cl)c2)CC(c2ccc(C#N)c(F)c2)NS1(=O)=O (racemic)
6. CCN(CC)CCCN1[C@H](C(=O)Nc2ccc(F)c(Cl)c2)C[C@H](c2nccs2)NS1(=O)=O (relative stereo)
7. [2H]C1[C@]([2H])(c2ncc(-c3cn(C([2H])([2H])[2H])cn3)s2)NS(=O)(=O)N(C)[C@]1([2H])C(=O)Nc1ccc(F)c(Cl)c1 (stereo in doubt)
8. CN1[C@@H](C(=O)Nc2ccc(F)c(Cl)c2)C[C@@H](c2cc(-c3cccnc3)cs2)NS1(=O)=O

// result
< 1 µM
< 1 µM
< 1 µM
1 to 5 µM
< 1 µM
> 5 µM
< 1 µM
> 5 µM

Batch lookup, EC50 per entry.
1. CN1[C@H](C(=O)Nc2ccc(F)c(Cl)c2)C[C@H](c2ccc(-c3ccn(C)n3)s2)NS1(=O)=O
2. O=C(Nc1ccc(F)c(Cl)c1)C1CC(c2nccs2)NS(=O)(=O)N1CCN1CCOCC1 (racemic)
3. Cc1cccc(NC(=O)C2CC(c3cccs3)NS(=O)(=O)N2C)c1 (racemic)
4. COc1ccc(-c2ccc([C@@H]3C[C@H](C(=O)Nc4ccc(F)c(Cl)c4)N(C)S(=O)(=O)N3)s2)cc1
5. CN1[C@H](C(=O)Nc2ccc(F)c(Cl)c2)C[C@H](c2ccccc2)NS1(=O)=O
6. CN1[C@H](C(=O)Nc2ccc(F)c(Cl)c2)C[C@H](c2ccc(-c3ccccc3)s2)NS1(=O)=O
7. CCn1cc(-c2ccc(C3CC(C(=O)Nc4ccc(F)c(Cl)c4)N(C)S(=O)(=O)N3)s2)cn1 (racemic)
8. CN1[C@H](C(=O)Nc2ccc(F)c(Cl)c2)C[C@@H](c2ccc(-c3cnn(C)c3)s2)NS1(=O)=O (racemic) [HBV-CSU-161-Trans (Rac)]

// result
< 1 µM
> 5 µM
< 1 µM
1 to 5 µM
< 1 µM
< 1 µM
< 1 µM
1 to 5 µM

Batch lookup, EC50 per entry.
1. CN1[C@@H](C(=O)Nc2ccc(F)c(Cl)c2)C[C@@H](c2ccc(-c3cncs3)s2)NS1(=O)=O
2. CN1[C@H](C(=O)Nc2ccc(F)c(Cl)c2)C[C@H](C2CCCC2)NS1(=O)=O

// result
["> 5 µM", "< 1 µM"]
